test system: wild type HIV-LAI strain (IIIB); experiment: Antiviral spectrum, cellular assay, strain IIIB; type: cell-based; details: Human immunodeficiency virus 1
Item-by-item account of EC50
Hi! Could you send only the number? It should be in nM, unit omitted.

compound: Cc1cc(C#N)cc(C)c1Oc1nc(Nc2ccc(C#N)cc2)nc(N)c1Br [Compound A, reference compound]
measurement kind: EC50
recorded result: 2.82

Query: Look up EC50: Cc1cc(C#N)cc(C)c1Oc1nc(Nc2ccc(C#N)cc2)[n+]([O-])c(N)c1Br
Response: 0.575

src = patent US7935711B2
